Biological target: NGF (nerve growth factor) (Homo sapiens, UniProt P01138 P01138:122-241)
Sequence (P01138 122-241, one chain of several): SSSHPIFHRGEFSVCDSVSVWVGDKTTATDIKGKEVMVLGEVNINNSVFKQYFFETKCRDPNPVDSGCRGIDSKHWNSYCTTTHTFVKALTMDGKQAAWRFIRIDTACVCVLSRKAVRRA
Assay: cell_activity; neurite; TF-1 0.036
Conditions: tags: R&D Systems; chain copies: 2
quantity kind: IC50 (nM)

[[record]]
binder = "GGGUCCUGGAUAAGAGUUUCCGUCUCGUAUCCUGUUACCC (ssRNA, as 82(1) except 2'-OMe U11) [SEQ ID NO: 82(4)]"
quantity_kind = "IC50"
numeric_value = 0.139

